Entry source: PubChem BioAssay (NCI)

Test system: KM12 colon
Assay: NCI-60 one-dose screen, 48 h (100 = growth as untreated, 0 = no growth, -100 = all killed)
Settings: 10 µM unless noted
Method: Growth inhibition of the KM12 human tumor cell line is measured as a screen for anti-cancer activity. Cells are grown in 96 well plates and exposed to the test compound for 48 hours. Compounds are tested at a single concentration, which is 10^-5 M for most compounds. The reported endpoint is percent growth (GI% or GIPRCNT), where numbers from 0 - 100% represent growth inhibition, and numbers from -100% - 0 represent cell death. For example, a value of 40 represents 60% growth inhibition. […]
The panel holds about 83,000 compounds, 20% with a hit somewhere; the sample as a whole holds those more often.

Molecule | growth, %
O=C1C(Cl)=C(Nc2ccc(Nc3ccccc3)c(NC3=C(Cl)C(=O)c4ccccc4C3=O)c2)C(=O)c2ccccc21 | 31.6
O=C(/C=C/c1ccc(Cl)cc1)c1ccc(Cl)cc1 | 83.3
O=P(OCCCl)(OCCCl)C(O)c1ccccc1Cl (configuration not stated) | 104
O=C(Nc1ccc(Cl)cn1)C1(c2ccccc2)CCCCC1 | 101
CCCCCCCCCCCCCCCCNC(=S)N/N=C/c1ccc(OC)cc1 | 97.9
CCOC(=O)CSSCC(=O)OCC | 105
Cc1ccc2c(O)c(O)cc(NC(C)CCCN)c2n1 (configuration not stated) | 109

* * *

System: NCI-H522 lung
Assay: NCI-60 one-dose screen, 48 h
Conditions: 10 µM
This is part of a sample that, as a whole, favours compounds with a hit. Of some 83,000 tested, about 20% had one in any assay. Active and inactive are the calls of the source. The calls were made as follows: active = growth percent below 10; inactive = the rest.
Labels: active, inactive

Molecule | Class
N=C(N)c1ccc(-c2ccc(-c3cc(Cl)cc(Cl)c3)s2)cc1 | active
Cc1nc2ccccc2c(=O)n1-c1cccc(OCc2cn(-c3cccc(O)c3)nn2)c1 | inactive
O=S(=O)(O)CCI | inactive
O=C1/C(=C\c2cn(-c3nc(N4CCOCC4)nc(N4CCOCC4)n3)c3ccccc23)c2ccccc2N1c1c(Cl)cccc1Cl | inactive
Clc1ccc(N/N=C(/c2ccccc2)c2ccccn2)nc1 | inactive
O=C1/C(=C/c2ccc(Cl)cc2)CCC/C1=C\c1ccc(Cl)cc1 | inactive
COc1ccc(CNCCCN2C(=O)c3ccc4c5c(ccc(c35)C2=O)C(=O)N(CCCNCc2ccc(OC)c(OC)c2OC)C4=O)c(OC)c1OC | active
COc1ccc(/C=C(/C(=O)N2CCCCC2)c2cc(OC)c(OC)c(OC)c2)cc1 | active
O=C(N/N=C/c1ccccc1Cl)c1cccc2ccccc12 | inactive
CC(=O)OCC1O[C@@H](OC(C)=O)[C@@H](NC(=O)NS(=O)(=O)c2ccccc2)C(OC(C)=O)[C@@H]1OC(C)=O (stereo not given in full) | inactive

* * *

Test system: SNB-19 CNS
Test: NCI-60 one-dose screen, 48 h
Settings: 10 µM unless noted
The panel holds about 83,000 compounds, 20% with a hit somewhere; the sample as a whole holds those more often. Activity calls are given as the source filed them. Rule for the calls: active = growth percent below 10; inactive = the rest.
Labels: active, inactive

Compound | Class
CC(=O)Nc1nc(C)c(C(=O)N/N=C/N2CCCCC2)s1 | inactive
C=CC1CN2CCC1CC2C(O)c1ccnc2ccc(OC)cc12 (stereo not given) | inactive
OCC(O)C(O)CC1SCCS1 (stereo not given) | inactive
O=C1C(Cl)=C(SC2=NCCN2)C(=O)c2ccccc21 | inactive
COc1cc(-c2nn(-c3ccc(NC(=O)c4ccc(Cl)c(C(F)(F)F)c4)cc3)cc2-c2ccncc2)ccc1Cl | inactive
Nc1ccc(N=Nc2ccccc2)c2cc(S(=O)(=O)O)ccc12 | inactive
CCCNC(=O)Oc1ccc(/C(=C(/C)Cc2ccc(OC)cc2)c2ccc(OCCN3CCCC3)cc2)cc1 | inactive
CCCCCCCCCCCC(=O)OC(C)C(=O)Nc1ccccc1 (stereo not given) | inactive
CCCCn1c(Cc2ccc(OC)cc2)nc2cc(OC)c(OC)cc2c1=O | inactive
COC(=O)c1ccc2[nH]c(O)c(C(=Nc3ccc(N(C)C(=O)CN4CCN(C)CC4)cc3)c3ccc([N+](=O)[O-])cc3)c2c1 | inactive
Cc1ccc(C(=O)Nc2ccc(CN3CCN(C)CC3)c(C(F)(F)F)c2)cc1C#Cc1cnc(N)c2ccc(F)cc12 | active
c1ccc(Nc2ncc3c(n2)-c2cccn2CC3)cc1 | inactive
CCOc1nc(-c2ccccc2)cc2c(O)c(C(=O)N/N=C/c3ccccc3O)[nH]c(=O)c12 | inactive
CC/C(=N\Nc1nc2ccccc2n1C)c1ccccn1 | inactive
CN1NC(c2ccccc2)NN(C)C1=O | inactive
COc1ccc(-c2nc(SCC(C)C)nc(Nc3ccc(C(=O)O)cc3)c2C#N)cc1 | inactive
O=C(Nc1cccc2[nH]c(C(F)(F)F)nc12)c1ccc(F)cc1 | inactive
COC(=O)C(C(=O)OC)C(Br)C(Br)C(Br)c1ccccc1 (stereo not given) | inactive
CC(C)OC(=O)[C@H](C)N[P@@](=O)(OC[C@@]1(C)O[C@@H](n2cc(F)c(N)nc2=O)C[C@@H]1O[P@](=O)(N[C@@H](C)C(=O)OC(C)C)Oc1ccccc1)Oc1ccccc1 | inactive
N=c1c2c(=O)n3c(nc2nc2sc4ccc(Cl)cc4n12)-c1ccccc1Sc1ccccc1-3 | inactive
O=C(Nc1ccc(-n2cc(-c3ccncc3)c(-c3ccc(Cl)c(O)c3)n2)cc1)c1ccc(Cl)c(C(F)(F)F)c1 | inactive
CCOC(=O)CSSCC(=O)OCC | inactive
CCn1cc(C(=O)O)c(=O)c2cc(F)c(N3CCN(S(=O)(=O)c4ccc(Cl)cc4)CC3)cc21 | inactive
CCOC(=O)C1=NN(c2ccccc2)C2=NC(=O)/C(=C\c3cn(-c4ccccc4)nc3-c3cc4ccccc4o3)C(=O)N12 | inactive
C=C(NC(=O)[C@H](C(C)C)N(C)c1cccc2[nH]ccc12)C(=O)OC | inactive
CCCCS(=O)(=O)c1cc(Nc2ccc(O)c3c2C(=O)c2ccccc2C3=O)ccc1C | inactive
COc1cc(-c2nc(/C=C3/C(=O)Nc4ccccc43)c3ccccn23)cc(OC)c1OC | inactive
c1ccc(C(=NNc2nc3ccccc3o2)c2ccccn2)nc1 | inactive
COc1cc(OC)c2c(=O)cc(-c3ccccc3)oc2c1 | inactive
Nc1nc(-c2cccc(Br)c2)cc(-c2cc3ccccc3oc2=O)n1 | inactive
CCOC(=O)C1C(=O)C(=O)N(C(C)C)C1C(=O)OCC (stereo not given) | inactive
CCCCCCCCCC[N+](C)(C)C | inactive
COc1cc2c(c(OC)c1OC)C(=O)CC(c1cccc(C(=O)Nc3cccc(Br)c3)c1)O2 (stereo not given) | inactive
COC(=O)c1ccc2[nH]c(O)c(C(=Nc3ccc(N(C)C(=O)CN4CCN(C)CC4)cc3)c3ccc4c(c3)OCO4)c2c1 | inactive
COc1ccc(OC)c(Cn2cc3c(c2-c2ccccc2)CCc2cnoc2-3)c1 | inactive
COC(=O)c1ccc2[nH]c(O)c(C(=Nc3ccc(N(C)C(=O)CN4CCN(C)CC4)cc3)c3ccc(C)cc3)c2c1 | active
COc1cc(NC(C)CCCN)c2nccc(C)c2c1OC (stereo not given) | inactive
COc1ccccc1Cn1cc2c(c1)-c1oncc1CC2 | inactive
C=C(C)[C@@H]1CC[C@]2(COC(=O)c3ccccc3C(=O)O)CC[C@]3(C)[C@H](CC[C@@H]4[C@@]5(C)CCCNC(C)(C)[C@@H]5CC[C@]43C)[C@@H]12 | inactive
COc1ccc(-c2nc(SCC(C)C)nc(Nc3ccc([N+](=O)[O-])cc3)c2C#N)cc1 | inactive

* * *

Tested on: UO-31 renal
Assay: NCI-60 one-dose screen, 48 h
Details: 10 µM unless noted
About 83,000 compounds went through this panel and 20% of them were active in at least one assay; those are over-represented in the sample as a whole. Activity calls are given as the source filed them. How the source made its calls: active means growth percent below 10; inactive means the rest.
Labels: True for active, False for inactive

Compound | Class
O=S(=O)(O)c1ccc2c(c1)Sc1cc(S(=O)(=O)O)ccc1O2 | False
CC(=O)O.[In] | False
N#CCCCCCCCCCCC#N | False
CCCC[N+](C)(N)CCCC | False
Cc1cc2cn3c4ccc(O)cc4[nH]c(=O)c3c2cc1C | True
CCCCCN1CCN(C(CC(=O)c2ccccc2)C(=O)c2ccccc2)CC1 (configuration not stated) | False
Cn1cnc2nc[nH]c2c1=S | False

* * *

Test system: NCI-H522 lung
Assay: NCI-60 one-dose screen, 48 h
Conditions: 10 µM
Method: Growth inhibition of the NCI-H522 human Non-Small Cell Lung tumor cell line is measured as a screen for anti-cancer activity. Cells are grown in 96 well plates and exposed to the test compound for 48 hours. Compounds are tested at a single concentration, which is 10^-5 M for most compounds. The reported endpoint is percent growth (GI% or GIPRCNT), where numbers from 0 - 100% represent growth inhibition, and numbers from -100% - 0 represent cell death. […]
About 83,000 compounds went through this panel and 20% of them were active in at least one assay; those are over-represented in the sample as a whole. Calls of active or inactive are those of the source. The calls were made as follows: active = growth percent below 10; inactive = the rest.
Labels: y (active), n (inactive)

Compound | Class
CCOC(=O)NNc1[nH]c(-c2ccc(OC)cc2)cc1C#N | n
COc1cc2c(c(OC)c1OC)C(=O)CC(c1cccc(C(=O)Nc3cccc(Br)c3)c1)O2 (configuration not stated) | n
CC(=O)Nc1nc(C)c(C(=O)NN)s1 | n
C/C(=N\Nc1cccc(Cl)n1)c1ccccn1 | n
CCCCN(CCCC)CC(O)CN(CC)CC (configuration not stated) | n
COc1cc2c(cc1OC)C(Cc1cc(OC)c(OC)cc1[N+](=O)[O-])=NCC2 | n
Nc1ncn([C@@H]2O[C@H](CO)[C@@H](O)C2(F)F)c(=O)n1 | n
CCC(C)(C)c1ccc(OCCCCCCN2CCNCC2)cc1 | n
COc1ccc(-c2nc(SCC(C)C)nc(Nc3ccc(C)cc3)c2C#N)cc1 | n
COc1cc2ncnc(-n3ncc4cc(NC(=O)Nc5ccccc5)ccc43)c2cc1OC | n
COc1cccc(Cn2cc3c(c2)-c2oncc2CC3)c1 | n
C#CCCCCCCC[C@@H]1OC(=O)[C@H]([C@@H](C)CC)NC(=O)[C@H]([C@@H](C)CC)NC(=O)CC(=O)[C@@H]1C | n
O=C1c2cc([N+](=O)[O-])ccc2-c2cc(Cl)c(NC(=O)C(F)(F)F)cc21 | n
COc1ccc2oc(=O)cc(CN3C(=O)S/C(=C\c4ccc(Cl)cc4)C3=O)c2c1 | n
Cc1c(CN(C)C)cc(C(C)C)cc1C(C)C | n
N#CC1=C(N2CCOCC2)NC2c3ccccc3Sc3ccccc3N2C1=N (configuration not stated) | n
CCCC(=O)Nc1ccccc1C(=O)O | n
CC1(C)CC(=O)C2=C(C1)Oc1nc(N)c(C#N)c(N)c1C2c1ccc(F)cc1 (configuration not stated) | n
COc1ccc(NC(=O)/C=C(C)/C=C/C=C(C)/C=C/C2=C(C)CCCC2(C)C)cc1 | n
Oc1ccccc1/C=N/N=C/c1c(O)ccc2ccccc12 | n
NC(N)=Nc1ccc(/C=C2\C=Cc3ccccc32)cc1 | n
O=C(/C=C\c1ccc(NCc2ccc(C(=O)O)cc2)cc1)CCl | y
